Consider the following binders; for each one, report its SPOT peptide array binding signal intensity.
- targetOfAssay: AgBzz1-D1
- methodDescription: SPOT peptide array binding signal intensity (averaged, normalized) (arbitrary units (background-subtracted, floor 0; scale differs between SH3 domains)); higher = stronger binding of the SH3 domain to the peptide

NNQRRKPLLLNIGDH :: ≤ 0
FVLRYYILIPHEQWD :: ≤ 0

Note: attention shifts to another entry.
For `VPKEPAPAPPPEPDM` the binder record lists SPOT peptide array binding signal intensity as ≤ 0
